Target: Estrogen receptor (Homo sapiens) (UniProt P03372)
Sequence (P03372 whole entry, looked up): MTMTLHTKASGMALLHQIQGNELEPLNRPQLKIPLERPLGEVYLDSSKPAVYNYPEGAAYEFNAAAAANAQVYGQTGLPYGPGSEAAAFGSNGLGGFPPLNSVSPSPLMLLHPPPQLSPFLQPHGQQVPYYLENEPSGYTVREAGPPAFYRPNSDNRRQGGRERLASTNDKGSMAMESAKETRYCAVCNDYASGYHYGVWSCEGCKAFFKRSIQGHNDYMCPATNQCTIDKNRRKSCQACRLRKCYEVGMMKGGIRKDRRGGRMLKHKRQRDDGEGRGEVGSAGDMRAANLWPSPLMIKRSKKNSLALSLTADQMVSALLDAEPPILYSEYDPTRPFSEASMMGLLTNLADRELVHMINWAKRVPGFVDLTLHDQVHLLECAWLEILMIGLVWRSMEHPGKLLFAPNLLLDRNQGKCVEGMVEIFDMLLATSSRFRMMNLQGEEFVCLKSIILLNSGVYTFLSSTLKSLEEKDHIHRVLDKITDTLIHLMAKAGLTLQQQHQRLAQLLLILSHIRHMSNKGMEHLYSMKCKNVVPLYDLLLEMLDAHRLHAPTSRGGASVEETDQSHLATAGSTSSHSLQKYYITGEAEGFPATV
Assay: OT_ERa_GFPERaERE_0480: Odyssey Thera (OT) 8-hour HeLa Transcription Induction Assay for Estrogen Receptor (AID 2283381)
Active and inactive are the calls of the source. Rule for the calls: active = hit-call score of the fitted dose curve at least 0.9, where 1 is the maximum; inactive = score below 0.9.
// one of 1 for active, 0 for inactive, no free text

Tell me the assay call for C=C(C)C(=O)O please.
0

---
Would you mind telling me which call this test gave CCN(CC)c1ccc2c(-c3ccccc3C(=O)O)c3ccc(=[N+](CC)CC)cc-3oc2c1 ?
0

Subsequent entry: CC(=O)C=CC1=C(C)CCCC1(C)C
0

Subsequent entry: O=Nc1ccc(Nc2ccccc2)cc1
1

###

Read-out: Interleukin 2 (IL2), IL2 (gene 3558)
Experiment: BSK_BT_xIL2: BioMAP Diversity Plus: BT Assay for Interleukin 2 (IL2) Biomarker Activity (AID 2284245)
Details: primary human B cells with PBMC
Activity calls are given as the source filed them. How the source made its calls: active means hit-call score of the fitted dose curve at least 0.9, where 1 is the maximum; inactive means score below 0.9.
Would you mind answering with one of these outcomes? active, inactive

Hi, do you know how Cc1ccc2n[nH]nc2c1 came out in this test?
inactive

###

Assay: ATG_PXRE_CIS: Attagene CIS-FACTORIAL HepG2 Assay for human Pregnane X Receptor Element (PXRE) (AID 2282957)
Conditions: HepG2 Attagene CIS-FACTORIAL PXRE reporter, mRNA; actives raise or lower the signal
Method: ATG_CIS is a cell-based, multiplexed-readout assay that uses HepG2, a human liver cell line, with measurements taken at 24 hours after chemical dosing in a 24-well plate.ATG_PXRE_CIS is one of 52 assay component(s) measured or calculated from the ATG_CIS assay. […] This assay endpoint, ATG_PXRE_CIS, was analyzed with bidirectional fitting relative to DMSO as the negative control and baseline of activity. […]
The source made the active and inactive calls. The calls were made as follows: active = hit-call score of the fitted dose curve at least 0.9, where 1 is the maximum; inactive = score below 0.9.
readout-kind: AC50

Below, each entry is followed by its recorded AC50 result.
// returns reported AC50 for input CC(C)(C)c1cc(CCC(=O)NN)cc(C(C)(C)C)c1O
10.2 µM (active)

Then this compound: c1ccc2[nH]ccc2c1
29.9 µM (active)

Would you kindly repeat that for Cc1ncc([N+](=O)[O-])n1C ?
53.2 µM (active)

Please answer likewise for NC(=O)NC1NC(=O)NC1=O (centres undefined)
inactive

Proceed to CCCOCC(C)O (centres undefined)
25.5 µM (active)

More entries:
Fill in: AC50 of CCCCOCCOCCSC#N is ___
1.92 µM (active)

Same again, this time with CC(C)=CCC/C(C)=C/COC=O
inactive

Entry to check: NC(=O)Nc1ccc(Cl)cc1
inactive

Request: NNc1nc(-c2ccc(N)cc2)cs1
inactive

What do you have for CC(CCO)CCCC(C)(C)O (centres undefined) ?
inactive

How about this compound: O=C1O[C@@H]2[C@@H](O)[C@H](O)O[C@@H]2[C@H]1O
inactive

// same read-out, input: CCCC(=O)OCCC(C)CCC=C(C)C (centres undefined)
56.1 µM (active)

###

Molecular target: CCAAT/enhancer-binding protein beta (Homo sapiens)
Experiment: ATG_C_EBP_CIS: Attagene CIS-FACTORIAL HepG2 Assay for human CCAAT/Enhancer Binding Protein (C/EBP) beta (AID 2282927)
Details: HepG2 Attagene cis-factorial transcription factor reporter; actives raise or lower the signal
The source made the active and inactive calls. The calls were made as follows: active = hit-call score of the fitted dose curve at least 0.9, where 1 is the maximum; inactive = score below 0.9.
readout-kind: outcome

# query: outcome of entry Cc1cccc(C)c1[N+](=O)[O-]
inactive

Now consider CN1Cc2c(N)cccc2C(c2ccccc2)C1 (stereo not drawn) and answer again.
inactive

Then O=[N+]([O-])c1ccc(Nc2ccc(Nc3ccccc3)c(S(=O)(=O)O)c2)c([N+](=O)[O-])c1 ?
inactive

###

Read-out: CD38, CD38 (gene 952)
Assay: BSK_SAg_CD38: BioMAP Diversity Plus: SAg Assay for CD38 Biomarker Activity (AID 2283087)
Details: primary human HUVEC with PBMC; actives raise or lower the signal
Activity calls are given as the source filed them. The calls were made as follows: active = hit-call score of the fitted dose curve at least 0.9, where 1 is the maximum; inactive = score below 0.9.
Your answer must be one of the following: 1 (yes) for active, 0 (no) for inactive

Example entries begin here.
Entry NCCNCCN : call = ?
0 (no)

Next molecule: N#Cc1ccc(CC(=NNC(=O)Nc2ccc(OC(F)(F)F)cc2)c2cccc(C(F)(F)F)c2)cc1
0 (no)

Then this molecule: CC1CCC(C(C)CS)CC1S (stereo not given)
1 (yes)

Further cases:
Record request — test call for CCc1c(C)cc(N)c(CC)c1N
0 (no)

Now consider CC(=O)O[C@]1(C(C)=O)CC[C@H]2[C@@H]3C[C@H](C)C4=CC(=O)CC[C@]4(C)[C@H]3CC[C@@]21C and answer again.
0 (no)

Could you do the same for CC1COc2ccccc2N1C(=O)C(Cl)Cl (stereo not given) , please?
1 (yes)

###

Assay: CEETOX_H295R_11DCORT: CeeTox H295R High-throughput Steroidogenesis Assay for 11-Deoxycortisol (11DCORT) (AID 2283432)
Settings: actives raise or lower the signal
Calls of active or inactive are those of the source. The calls were made as follows: active = hit-call score of the fitted dose curve at least 0.9, where 1 is the maximum; inactive = score below 0.9.
I would appreciate it if you answered using one of these outcomes: active, inactive

Some entries whose results are on file:
What is the recorded call for this compound in the test? O=C(O)c1ccc([N+](=O)[O-])cc1
inactive

How about CC1(C)[C@H](C(=O)OCc2cccc(Oc3ccccc3)c2)[C@@H]1C=C(Cl)Cl ?
inactive

Cool, now CC1COc2ccccc2N1C(=O)C(Cl)Cl (centres undefined)
active

More entries:
Which result was noted for this compound in the test: C#C[C@]1(O)CC[C@H]2[C@@H]3CCC4=Cc5oncc5C[C@]4(C)[C@H]3CC[C@@]21C
active

###

Test: TOX21_p53_BLA_p2_viability: Viability Assessment in the Tox21 HCT-116 p53 Agonism Beta-lactamase Assay, Phase 2 (AID 2283591);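 note: compound exposure lasted 16 h at 37 °C; actives lower the ATP signal meaning cytotoxicity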
Records with an inconclusive call do not appear. The source made the active and inactive calls. Rule for the calls: active = hit-call score of the fitted dose curve at least 0.9, where 1 is the maximum; inconclusive = response in the unintended direction; inactive = score below 0.9.
Hello, when you answer, please use one of the following outcomes: t = active, f = inactive

Illustrative cases are given below, each with its answer.
Recorded test call requested for O=C1CCCCCCCCCCCCCCO1
f

Another compound to check: CC(CN1c2ccccc2Sc2ccccc21)N(C)C (stereo unspecified)
t

And what about the compound C=CC(=O)OCCOCCOCC ?
f

***
What is the recorded call for this compound in the test? O=[N+]([O-])c1cc(C(F)(F)F)ccc1Cl
f

Could you do the same for CN(C)CCOCCN(C)C , please?
f

What do you get for CC(C)[C@H]1CC[C@@H](C)CC1=O ?
f

What do we get for CCCCCNCCCCC ?
f

Lookup c1cc(C(c2ccc(OCC3CO3)cc2)c2ccc(OCC3CO3)cc2)ccc1OCC1CO1 (stereo unspecified)
f

Could you do the same for CC(C)=CCCC(C)=CCCC(C)=CCO , please?
f

Moving on to O=[N+]([O-])c1ccc(Nc2ccc(Nc3ccccc3)c(S(=O)(=O)O)c2)c([N+](=O)[O-])c1
f

Do the same for O=C(O)c1ccc(C(=O)O)cc1 please
f

###

Read-out: Actin alpha 1 (ACTA1), ACTA1 (gene 58)
Assay: BSK_MyoF_ACTA1: BioMAP Diversity Plus: MyoF Assay for Actin alpha 1 (ACTA1) Biomarker Activity (AID 2284244)
Conditions: primary human lung fibroblasts
Activity calls are given as the source filed them. The calls were made as follows: active = hit-call score of the fitted dose curve at least 0.9, where 1 is the maximum; inactive = score below 0.9.
Reply using exactly one outcome from active, inactive

Please review the entries below; each comes with its answer.
Hi, do you know how O=P(c1ccccc1)(c1ccccc1)c1ccccc1 came out in this test?
inactive

Ok, now CC(C)(COC(=O)c1ccccc1)COC(=O)c1ccccc1
inactive

What about this compound? c1ccc2sc(SN(C3CCCCC3)C3CCCCC3)nc2c1
active

Likewise for CCCCCCCCCCCCCCCCCC(=O)OCC(CC)CCCC (stereo not given) ?
inactive

More entries:
Returns: the outcome recorded for Cc1ccc(O)c(C(C)(C)C)c1 in this assay.
active

Field entry: c1ccc2c(c1)c1cccc3ccc4cccc2c4c31
inactive

Another compound to look at: O=C(O)c1cn(-c2ccc(F)cc2)c2cc(N3CCNCC3)c(F)cc2c1=O
inactive

Field entry: CC(=O)O[C@]1(C(C)=O)CC[C@H]2[C@@H]3C[C@H](C)C4=CC(=O)CC[C@]4(C)[C@H]3CC[C@@]21C
inactive

###

Test: ATG_NF_kB_CIS: Attagene CIS-FACTORIAL HepG2 Assay for human Nuclear Factor Kappa B (NF-kB) (AID 2282991)
Conditions: HepG2 Attagene cis-factorial NF-kB reporter mRNA; actives raise or lower the signal
Calls of active or inactive are those of the source. How the source made its calls: active means hit-call score of the fitted dose curve at least 0.9, where 1 is the maximum; inactive means score below 0.9.
Respond only with the outcome that fits, drawn from active, inactive

Reference set, count: 5
Call for entry O=c1[nH]c(=O)n([C@H]2CCCO2)cc1F :
inactive

Note, next up: c1cc(C(c2ccc(OCC3CO3)cc2)c2ccc(OCC3CO3)cc2)ccc1OCC1CO1 (configuration not stated)
active

How about this molecule: CCCC1CCC(=O)O1 (configuration not stated)
inactive

Now give it for BrC1CCC(Br)C(Br)CCC(Br)C(Br)CCC1Br (configuration not stated) too.
inactive

Same for CC(CN1c2ccccc2Sc2ccccc21)N(C)C (configuration not stated)
inactive

***
What did the test return for O=c1oc(=O)c2cc3c(=O)oc(=O)c3cc12 ?
inactive

Check c1ccc(CCCc2ccccn2)cc1 too.
inactive
